Ref: paper PMC5884524

molecular target: Chk1 (Homo sapiens, UniProt O14757); experiment: HCIF-CETSA (CETSA by immunofluorescence), low well volume heating, HT29 cells; type: cell-based; design: Thermal response profile of Chk1 in HT29 cells detected by immunofluorescent imaging with the EP691Y antibody; endogenous in cells; host or cells: HT29; conditions: HT29, 10 minute incubation, 50 μL media, 51°C (Fig 6D)
Sequence (O14757 whole entry): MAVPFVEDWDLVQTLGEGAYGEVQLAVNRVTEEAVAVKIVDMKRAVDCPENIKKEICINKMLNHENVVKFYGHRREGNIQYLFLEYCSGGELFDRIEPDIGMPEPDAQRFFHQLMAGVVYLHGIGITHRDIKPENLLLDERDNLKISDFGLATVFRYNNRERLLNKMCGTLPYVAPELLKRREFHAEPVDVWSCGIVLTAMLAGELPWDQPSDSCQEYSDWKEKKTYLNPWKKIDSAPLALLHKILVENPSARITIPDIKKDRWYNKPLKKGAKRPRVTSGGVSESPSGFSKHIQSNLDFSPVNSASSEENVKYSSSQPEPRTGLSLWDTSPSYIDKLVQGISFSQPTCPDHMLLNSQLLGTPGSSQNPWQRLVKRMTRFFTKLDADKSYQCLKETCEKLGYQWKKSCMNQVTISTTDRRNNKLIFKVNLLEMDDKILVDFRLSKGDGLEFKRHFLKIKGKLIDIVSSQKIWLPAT
ENDPOINT: EC50 (µM)
Write the answer as a number in µM, unit excluded.

input: What EC50 value was documented for this compound, CN(C)CC(C)(C)COc1ccc2[nH]c(-c3cc(NC(=O)c4cnn(Cc5ccccc5)c4)c[nH]c3=O)cc2c1 [V158411] ?
output: 1

---

target: Chk1 (Homo sapiens); test: Chk1 autophosphorylation (pS296) by immunoblotting and densitometry, U2OS cells; format: cell-based; conditions: 10 min, identical cellular conditions to HCIF-CETSA (Fig 6E)
ENDPOINT: IC50

input: What IC50 value was documented for this compound, CN(C)CC(C)(C)COc1ccc2[nH]c(-c3cc(NC(=O)c4cnn(Cc5ccccc5)c4)c[nH]c3=O)cc2c1 ?
output: ~110 nM
